# Test system: CCRF-CEM leukemia
# assay comment: NCI-60 one-dose screen, 48 h
# measurement setup: 10 µM
# Procedure: Growth inhibition of the CCRF-CEM human tumor cell line is measured as a screen for anti-cancer activity. Cells are grown in 96 well plates and exposed to the test compound for 48 hours. Compounds are tested at a single concentration, which is 10^-5 M for most compounds. The reported endpoint is percent growth (GI% or GIPRCNT), where numbers from 0 - 100% represent growth inhibition, and numbers from -100% - 0 represent cell death. For example, a value of 40 represents 60% growth inhibition. […]
This is part of a sample that, as a whole, favours compounds with a hit. Of some 83,000 tested, about 20% had one in any assay. Active and inactive are the calls of the source. Rule for the calls: active = growth percent below 10; inactive = the rest.
// allowed return values: label 1 = active, label 0 = inactive

Qu. Per the records of this test, what outcome belongs to CN1CCN(Cc2ccc(C(=O)Nc3cccc(Nc4ccc5cc(O)ccc5n4)c3)cc2C(F)(F)F)CC1 ?
Ans. label 1

Qu. Per the records of this test, what outcome belongs to O=C(CNc1nc(-c2ccccc2)cs1)Nc1cccc(Cl)c1 ?
Ans. label 0

Qu. Per the records of this test, what outcome belongs to COc1ccc(-c2ccc(SCC(=O)Nc3ccc(C#N)cc3)nn2)cc1 ?
Ans. label 0

Qu. Per the records of this test, what outcome belongs to N#Cc1c(NC(=O)c2ccc(C(F)(F)F)c(Cl)c2)sc2c1CCC(=O)C2 ?
Ans. label 1

Qu. Per the records of this test, what outcome belongs to COc1ccccc1[C@H]1C(C(=O)c2ccc(Cl)cc2)C2(N[C@@H]1c1ccccc1)C(=O)Nc1ccc(Cl)cc12 (some centres not stated) ?
Ans. label 1

Qu. Per the records of this test, what outcome belongs to COc1ccc(Nc2nc(N)n(Cc3cccc(Br)c3)n2)cc1 ?
Ans. label 0
